Values from patent US20140154255A1

Target: Alexa647-conjugated rHuVEGF (Invitrogen Cat #PHG0143) (human, UniProt P15692-4 27-191, limits assumed, Alexa647-conjugated)
Sequence (P15692 other isoform, or with tags, fused parts or gaps limits assumed): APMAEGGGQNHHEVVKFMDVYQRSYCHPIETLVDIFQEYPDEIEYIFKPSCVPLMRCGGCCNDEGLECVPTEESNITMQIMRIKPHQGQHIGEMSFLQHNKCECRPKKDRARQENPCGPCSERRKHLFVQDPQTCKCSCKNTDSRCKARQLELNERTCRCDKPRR
Assay: flow cytometry, surface-bound antibody on 293c18 cells, 3 nM Alexa647-rHuVEGF
Parameters: reference not given here
Protocol: Data were gathered by way of flow cytometry using a DakoCytomation CyAn ADP flow cytometer and was analyzed using Treestar's FloJo analysis program.
Measured Attribute: MFI
Answer with a bare number; do not write a unit.

Documented MFI of VL T51A (antibody, V domains shown) VH: EVQLVESGGGLVQPGGSLRLSCAASGYTFTNYGMNWVRQAPGKGLEWVGWINTYTGEPTYAADFKRRFTFSLDTSKSTAYLQMNSLRAEDTAVYYCAKYPHYYGSSHWYFDVWGQGTLVTVSS VL: DIQMTQSPSSLSASVGDRVTITCSASQDISNYLNWYQQKPGKAPKVLIYFASSLHSGVPSRFSGSGSGTDFTLTISSLQPEDFATYYCQQYSTVPWTFGQGTKVEIKR : 296
